FYI, the data here is from patent US8232308B2.

Structures can show the parent of a compound that is named as a salt.
experimental readout: melting point

Solved entries:
{"columns": ["compound", "test result"],
 "data": [
  ["CC(C)(N)c1cnc(-c2ccc3[nH]ncc3c2)c(Cl)c1 (as salt: hydrochloride) [Compound 5-27, trihydrochloride]", "179 to 182 °C"],
  ["Nc1c(-c2ccc(C3(N)CCCC3)cc2)ccc2[nH]ncc12 (as salt: hydrochloride) [Compound 5-21, dihydrochloride]", "234 to 237 °C"]
]}

For this compound ( CC(C)(N)c1ccc(-c2ccc3[nH]ncc3c2CCO)cc1 (as salt: hydrochloride) [Compound 5-32, dihydrochloride] ), measured melting point is 202 to 203 °C (dec.)

* * *

- tested system: activated ROCK II (Rattus norvegicus)
- Sequence (Q62868 11-550 limits assumed): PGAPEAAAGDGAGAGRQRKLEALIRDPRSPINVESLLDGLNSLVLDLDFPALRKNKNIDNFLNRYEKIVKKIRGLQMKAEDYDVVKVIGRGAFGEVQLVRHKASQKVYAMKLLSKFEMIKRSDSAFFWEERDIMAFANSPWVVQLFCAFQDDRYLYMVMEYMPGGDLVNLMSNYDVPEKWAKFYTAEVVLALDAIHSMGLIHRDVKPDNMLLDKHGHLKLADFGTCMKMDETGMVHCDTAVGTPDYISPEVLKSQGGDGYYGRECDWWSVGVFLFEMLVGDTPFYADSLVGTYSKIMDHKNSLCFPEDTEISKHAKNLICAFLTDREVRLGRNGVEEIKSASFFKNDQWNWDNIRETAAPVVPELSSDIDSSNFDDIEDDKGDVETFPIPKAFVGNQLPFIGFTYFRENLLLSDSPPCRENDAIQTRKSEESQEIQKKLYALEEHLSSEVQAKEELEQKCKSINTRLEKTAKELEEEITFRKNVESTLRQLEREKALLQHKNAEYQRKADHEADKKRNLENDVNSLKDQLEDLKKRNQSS
- protocol description: Test for Evaluation of Inhibiting Activity to Rho Kinase
- assay context: S6 Kinase Substrate Peptide, [γ-32P]ATP, 30° C. for 15 minutes, Ki=IC50/(1+S/Km)
Where a name gives a salt, the structure may show the parent alone.
experimental readout: Ki (nM)

{"columns": ["compound", "tested system", "Ki [nM]"],
 "data": [
  ["CC(C)(N)c1ccc(-c2ccc3[nH]nc(C(N)=O)c3c2)cc1 [Compound 5-10, monohydrochloride]", "activated ROCK II (Rattus norvegicus)", 134],
  ["CNc1c(-c2ccc(C(C)(C)N)cc2)ccc2[nH]ncc12 [Compound 5-7, trihydrochloride]", "activated ROCK II (Rattus norvegicus)", 15]
]}

1: CC(C)(N)c1ccc(-c2ccc3[nH]ncc3c2OCC2CC2)nc1.Cl.Cl.Cl [Compound 5-73, trihydrochloride]
2: CN(C)c1c(-c2ccc(C(C)(C)N)cc2)ccc2[nH]ncc12 [Compound 5-16, trihydrochloride]
3: CC(C)(N)c1ccc(-c2ccc3[nH]ncc3c2-c2cn[nH]c2)nc1
4: CC(C)(N)c1ccc(-c2ccc3[nH]ncc3c2-c2ccccn2)cc1 [Compound 5-63, trihydrochloride]
5: CC(C)(N)c1ccc(-c2ccc3[nH]ncc3c2[N+](=O)[O-])cc1 [Compound 5-4, monohydrochloride]
stdin: Hey, quick one: sort these by Ki, low to high? Ranked list of labels, please, in the requested order.
stdout: 2, 5, 3, 1, 4

* * *

- tested system: activated ROCK II (Rattus norvegicus)
- protocol description: Test for Evaluation of Inhibiting Activity to Rho Kinase
- assay context: S6 Kinase Substrate Peptide, [γ-32P]ATP, 30° C. for 15 minutes, Ki=IC50/(1+S/Km)
Where a name gives a salt, the structure may show the parent alone.
experimental readout: Ki (nM)

Solved entries:
{"columns": ["compound", "Ki / nM"],
 "data": [
  ["CC(N)c1ccc(-c2ccc3[nH]ncc3c2N(C)C)cc1 (stereo not shown) [Compound 5-26, trihydrochloride]", 27],
  ["CCc1c(-c2ccc(C(C)(C)N)cn2)ccc2[nH]ncc12 [Compound 5-28, trihydrochloride]", 15]
]}

I: CC(C)(N)c1ccc(-c2ccc3[nH]ncc3c2)nc1 [Compound 5-3, trihydrochloride]
II: CCCOc1c(-c2ccc(C(C)(C)N)cn2)ccc2[nH]ncc12 [Compound 5-58, trihydrochloride]
stdin: Please state the entry with greater Ki among I and II . Output the label that corresponds to your choice.
stdout: II
(II: 39 nM, I: 20 nM)

* * *

- tested system: activated ROCK II (Rattus norvegicus)
- protocol description: Test for Evaluation of Inhibiting Activity to Rho Kinase
- assay context: S6 Kinase Substrate Peptide, [γ-32P]ATP, 30° C. for 15 minutes, Ki=IC50/(1+S/Km)
pKi: −log10 of the molar value. Where a name gives a salt, the structure may show the parent alone.
experimental readout: pKi

{"columns": ["molecule", "test result"],
 "data": [
  ["CC(C)(N)c1ccc(-c2ccc3[nH]ncc3c2NCc2ccccc2)cc1 [Compound 5-6, dihydrochloride]", 6.59]
]}

a: CC(C)(N)c1ccc(-c2ccc3[nH]ncc3c2)cc1 [Compound 5-1, dihydrochloride]
b: CC(C)(N)c1ccc(-c2ccc3[nH]ncc3c2-n2cccc2)cc1 [Compound 5-39, dihydrochloride]
c: C=C(C)c1n[nH]c2ccc(-c3ccc(C(C)(C)N)cc3)cc12 [Compound 5-15, monotrifluoroacetate]
stdin: Order the items by recorded pKi; the first position goes to the largest value. Ranked list of labels, please, in the requested order.
stdout: b, a, c
(b: 7.92, a: 7.72, c: 7.25)
